Measured values drawn from patent US20160143913A1 for this set.

System: NCI-H508
assay-summary: Cell growth inhibition assay (Cell Titer Glo), NCI-H508
Assay type: cell-based
condition-parameters: Homo sapiens, 72 h; NCI-H508 colon; BRAF_G596R; PIK3CA_E545K; single agent, 3 days, mean ± std
measured-attribute: IC50 (nM)

compound | units | recorded-number
CC(=O)Nc1cccc(-n2c(=O)n(C3CC3)c(=O)c3c(Nc4ccc(I)cc4F)n(C)c(=O)c(C)c32)c1 | nM | 23

###

System: human colon tumor lines
assay-summary: Cell growth inhibition assay, colon lines
Format: cell-based
condition-parameters: colon lines depicted in Table 1, range over the lines, read-out: IC50s, single agent

compound | IC50
CC(=O)Nc1cccc(-n2c(=O)n(C3CC3)c(=O)c3c(Nc4ccc(I)cc4F)n(C)c(=O)c(C)c32)c1 | 1 to 632 nM

###

In this section we review reported pIC50 values for a set of compounds.
Tested on: HOP62
assay-summary: Cell growth inhibition assay (Cell Titer Glo), HOP62
Format: cell-based
condition-parameters: Homo sapiens, HOP-62, 72 h; HOP62 lung; KRAS_G12C; PIK3CA/PTEN WT; single agent, 3 days, mean ± std
pIC50: −log10 of the molar value.

compound | pIC50
CC(=O)Nc1cccc(-n2c(=O)n(C3CC3)c(=O)c3c(Nc4ccc(I)cc4F)n(C)c(=O)c(C)c32)c1 | < 6.00
Cn1ncc(Cl)c1-c1cc(C(=O)N[C@H](CN)Cc2cccc(F)c2)sc1Cl | < 5.00

###

Tested on: Calu6
assay-summary: Cell growth inhibition assay (Cell Titer Glo), Calu6
Assay type: cell-based
condition-parameters: Homo sapiens, Calu-6, 72 h; Calu6 lung; KRAS_Q61K; PIK3CA/PTEN WT; single agent, 3 days, mean ± std
The following compounds are listed with their measured IC50 values.

compound | target-entity | IC50
CC(=O)Nc1cccc(-n2c(=O)n(C3CC3)c(=O)c3c(Nc4ccc(I)cc4F)n(C)c(=O)c(C)c32)c1 | Calu6 | 4 nM
Cn1ncc(Cl)c1-c1cc(C(=O)N[C@H](CN)Cc2cccc(F)c2)sc1Cl | Calu6 | 2150 nM
